I'd appreciate it if you could supply mortality at 500 µg/mL values for the items below.
Tested on: Aphis medicaginis
METHOD_SUMMARY: Insecticidal activity against Aphis medicaginis assessed as insect mortality at 500 mg/L measured after 72 hr post compound treatment
Type: functional

>  <SUBSTANCE_SMILES>
CCOC(=O)[C@H](C)N1CN/C(=N\[N+](=O)[O-])N(Cc2ccc(Cl)nc2)C1

>  <mortality at 500 µg/mL>
≥ 70%

$$$$

Dear reader, for each entry below, please note its mortality at 500 µg/mL.
1. CCOC(=O)CC(CC(=O)OCC)N1CN/C(=N\[N+](=O)[O-])N(Cc2cnc(Cl)s2)C1
2. CCOC(=O)CN1CN/C(=N\[N+](=O)[O-])N(Cc2ccc(Cl)nc2)C1

Solution:
1. ≥ 90%
2. ≥ 80%

Each recorded value in this set is attributed to ChEMBL document CHEMBL3046602.
